Values compiled from patent US12344603B2.

Kindly state IC50 for each of the entries shown.
# EXPERIMENTAL TARGET: IRE1α (Homo sapiens (Human), UniProt O75460, D688N)
# Sequence (O75460 547-977 D688N): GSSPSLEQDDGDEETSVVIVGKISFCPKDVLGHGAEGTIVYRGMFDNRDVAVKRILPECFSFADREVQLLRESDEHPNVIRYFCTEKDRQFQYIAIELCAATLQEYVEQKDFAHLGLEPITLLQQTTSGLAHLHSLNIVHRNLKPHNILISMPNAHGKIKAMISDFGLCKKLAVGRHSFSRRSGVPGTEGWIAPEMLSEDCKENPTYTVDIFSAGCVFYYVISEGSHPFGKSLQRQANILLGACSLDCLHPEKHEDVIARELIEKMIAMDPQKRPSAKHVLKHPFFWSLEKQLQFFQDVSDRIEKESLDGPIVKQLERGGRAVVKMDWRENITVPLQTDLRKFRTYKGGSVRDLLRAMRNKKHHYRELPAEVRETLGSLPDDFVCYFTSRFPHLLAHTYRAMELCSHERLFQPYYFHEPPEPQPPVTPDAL
# MEASUREMENT NOTES: IRE1α TR-FRET competition binding assay (IRE1α HTRF)
# RUN PARAMETERS: TR-FRET competition binding to kinase domain of IRE1α
Counter-ions that a name gives are not always drawn.
Give bare numbers, in nM.

Solved entries (count: 3):
COMPOUND	OBSERVED RESULT
CC(C)n1c(=O)c(-c2cc(F)c(NS(=O)(=O)Cc3ccccc3F)c(F)c2F)cc2cnc(N[C@H]3CNC[C@@H](O)C3)nc21	8.5
CCn1c(=O)c(-c2cc(F)c(NS(=O)(=O)Cc3cccc(C(F)(F)F)c3)c(F)c2F)cc2cnc(N[C@@H]3CNC[C@@H](F)C3)nc21	0.4
CC(C)n1c(=O)c(-c2ccc(NS(=O)(=O)CCC(F)(F)F)c(F)c2)cc2cnc(N[C@H]3CC[C@H](N(C)C4CC4)CC3)nc21	0.21

Give IC50 for each listed item.
1. Cc1nc(NS(=O)(=O)c2ccccc2F)ccc1-c1nc2cnc(N[C@H]3CC[C@H](N(C)C)CC3)nc2n(C(C)C)c1=O
2. CC(C)n1c(=O)c(-c2ccc(NS(=O)(=O)CC3CC4C(C3)C4(F)F)c(F)c2)nc2cnc(N[C@H]3CC[C@H](N(C)C)CC3)nc21 (stereo partly drawn)
3. CC(C)n1c(=O)c(-c2ccc(NS(=O)(=O)CC3(C(C)(F)F)CC3)c(F)c2)nc2cnc(N[C@H]3CC[C@H](N(C)C)CC3)nc21
4. CC(C)n1c(=O)c(-c2ccc(NS(=O)(=O)CCC(F)(F)F)nc2)cc2cnc(N[C@H]3CC[C@H](N(C)CCF)CC3)nc21
5. CC(C)n1c(=O)c(-c2cc(F)c(NS(=O)(=O)Cc3ccc(F)cc3)c(F)c2F)nc2cnc(N[C@@H]3CNC[C@@H](F)C3)nc21 [Compound 171, hydrochloride]
6. COCCN(CCOC)[C@H]1CC[C@H](Nc2ncc3cc(-c4ccc(NS(=O)(=O)CCC(F)(F)F)c(F)c4)c(=O)n(C(C)C)c3n2)CC1
7. CC(C)n1c(=O)c(-c2ccc(NS(=O)(=O)CCC(F)(F)F)nc2)cc2cnc(N[C@H]3CC[C@H](N(C)C)[C@H](F)C3)nc21
8. CC(C)n1c(=O)c(-c2cc(F)c(NC(=O)C3CC3)c(F)c2F)cc2cnc(N[C@H]3CC[C@H](N(C)C)CC3)nc21

Out:
0.3
0.2
0.2
0.3
0.12
0.25
0.2
1.4

In: Using the record for CC(C)n1c(=O)c(-c2ccc(NS(=O)(=O)Cc3ccccc3)c(F)c2)nc2cnc(N[C@@H]3CNC[C@H](CF)C3)nc21 , report its IC50.
Out: 0.24

---

Task for the reader: assign each of the following molecules its reported IC50.
# EXPERIMENTAL TARGET: IRE1α (Homo sapiens (Human), UniProt O75460, D688N)
# MEASUREMENT NOTES: IRE1α TR-FRET competition binding assay (IRE1α HTRF)
# RUN PARAMETERS: TR-FRET competition binding to kinase domain of IRE1α
Answers are plain numbers, in nM.

Some molecules with recorded IC50:
CPD SMILES	IC50 [nM]
CC(C)n1c(=O)c(-c2ccc(NS(=O)(=O)CC3CCCCC3)nc2)cc2cnc(N[C@H]3CC[C@H](N(C)C)CC3)nc21	0.18
CC(C)n1c(=O)c(-c2ccc(NS(=O)(=O)N3CCCCC3)c(F)c2)nc2cnc(N[C@@H]3CNC[C@@H](F)C3)nc21	1.3
CC(C)n1c(=O)c(-c2ccc(NS(=O)(=O)CCC(C)(F)F)c(F)c2)cc2cnc(N[C@H]3CC[C@H](N(C)C)CC3)nc21	0.3
CC(C)n1c(=O)c(-c2cc(F)c(NS(=O)(=O)CCC(F)(F)F)c(F)c2)cc2cnc(N[C@H]3CC[C@H](N(C)C)CC3)nc21	0.26
CC(C)n1c(=O)c(-c2ccc(NS(=O)(=O)CC3(C(F)F)CCCC3)c(F)c2)nc2cnc(N[C@H]3CC[C@H](N(C)C)CC3)nc21	0.2

Required: IC50, one value per molecule below.
1. CC(C)n1c(=O)c(-c2cc(F)c(NS(=O)(=O)Cc3ccccc3)c(F)c2F)cc2cnc(N[C@@H]3CNC[C@@H](F)C3)nc21
2. CC(C)n1c(=O)c(-c2ccc(NS(=O)(=O)CCC(F)(F)F)c(F)c2)cc2cnc(N[C@H]3CC[C@H](N4CC5(COC5)C4)CC3)nc21
3. CC(C)n1c(=O)c(-c2ccc(NS(=O)(=O)CC3CCC(F)(F)CC3)c(F)c2)nc2cnc(N[C@H]3CC[C@H](N(C)C)CC3)nc21
4. Cc1nc(NS(=O)(=O)c2ccccc2Cl)ccc1-c1cc2cnc(N[C@H]3CC[C@H](N(C)C)CC3)nc2n(C(C)C)c1=O
5. CC(C)n1c(=O)c(-c2ccc(NS(=O)(=O)CCC(F)(F)F)c(F)c2)nc2cnc(N[C@@H]3CNC[C@@H](F)C3)nc21
6. COCCN1CC2(CCC(Nc3ncc4cc(-c5ccc(NS(=O)(=O)CCC(F)(F)F)c(F)c5)c(=O)n(C(C)C)c4n3)CC2)C1

Out:
[0.19, 0.24, 0.2, 0.43, 0.5, 0.2]
